Values from paper PMC7174603

Target: MaltOBP10 (Monochamus alternatus, UniProt A0A1I9HZL5)
Construct: gene obp10; said to encode mature protein (clone primer starts at ATG)
Sequence (A0A1I9HZL5 1-144 limits assumed): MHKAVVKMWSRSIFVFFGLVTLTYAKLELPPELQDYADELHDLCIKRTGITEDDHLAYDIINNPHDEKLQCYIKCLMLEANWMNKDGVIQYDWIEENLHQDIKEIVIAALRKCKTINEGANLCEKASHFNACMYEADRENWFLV
Experiment: biochemical
Set-up: 1-NPN fluorescence displacement competitive binding to 2 uM recombinant OBP; Ki from IC50
Settings: pH 7.4; read-out: MaltOBP10 / pH7.4
Protocol: Fluorescence-binding assays were performed to determine the binding affinities of MaltOBP9 and MaltOBP10 with 17 volatiles in neutral and acidic pH conditions separately using N-phenyl-1-naphthylamine (1-NPN) as the fluorescent probe. […] The binding constants for 1-NPN were determined by adding aliquots of 1 mM 1-NPN to separate samples containing 2 μM of each OBP in 50 mM Tris–HCl at pH 7.4 and room temperature. […]
reportedProperty: Ki (µM)
// return numeric value only (unit: µM, not printed)

Illustrative cases are given below, each with its answer.
>>> df
                                   compound  reportedproperty  assayvalue
0    CC1=CCC2C(C1)C2(C)C (stereo not shown)                Ki        42.5
1   C=C(C)[C@H]1CC=C(C)CC1 [R-(+)-Limonene]                Ki        23.9
2   CC1(C)[C@H]2CC[C@]1(C)C(=O)C2 (racemic)                Ki        26.2
3             C=C1[C@@H]2CC[C@@H](C2)C1(C)C                Ki        20.6
4                          Cc1ccc(C(C)C)cc1                Ki        23.8
5  C=C1CC[C@@H]2C[C@H]1C2(C)C [(+)-β-pinene]                Ki        25.8

Here is the next item to consider.
# get_value(readout='Ki', item= CC1(C)C(=O)[C@@]2(C)CC[C@@H]1C2 [(+)-Fenchone] )
22.7

---

Biological target: MaltOBP9 (Monochamus alternatus)
Construct: gene obp9; said to encode mature protein (clone primer starts at ATG)
Sequence (A0A1I9HZK8 1-140 limits assumed): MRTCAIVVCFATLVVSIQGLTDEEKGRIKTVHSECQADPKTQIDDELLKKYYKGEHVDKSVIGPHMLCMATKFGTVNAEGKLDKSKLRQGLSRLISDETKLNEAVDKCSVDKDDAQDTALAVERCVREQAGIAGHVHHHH
Test: biochemical
Set-up: 1-NPN fluorescence displacement competitive binding to 2 uM recombinant OBP; Ki from IC50
Conditions: pH 5.0; read-out: MaltOBP9 / pH5.0
reportedProperty: pKi
Please keep in mind that pKi is minus log10 of the molar concentration; only the number is needed.

Some compounds with recorded pKi:
                                   compound  assayvalue
0  CC1=CC[C@@H]2[C@@H]3[C@H]1[C@@]2(C)CCCC3(C)C [(+)-α-longipinene]        4.46
1  C=C1CC[C@H]2O[C@]2(C)CC[C@@H]2[C@@H]1CC2(C)C [(−)-caryophyllene oxide]        4.41
2  Cc1cc(C(C)(C)C)c(O)c(C(C)(C)C)c1 [Butylated hydroxytoluene]        5.45
3  C=C(C)[C@@H]1CC=C(C)CC1 [S-(−)-Limonene]        4.92
4    CC1=CCC2C(C1)C2(C)C (stereo not drawn)        4.42

Please look up its pKi: CC1(C)[C@H]2CC[C@]1(C)C(=O)C2 (racemic)
4.30

I would be grateful if you could share the reported pKi for CC1(C)C(=O)[C@@]2(C)CC[C@@H]1C2 [(+)-Fenchone] .
4.34

Form field: reported pKi of C=C1CC/C=C(\C)CC[C@@H]2[C@@H]1CC2(C)C
3.89

Given the entry C=CC(=C)CCC=C(C)C , report its measured pKi.
5.40

What does the data say about its pKi? Entry: C=C1CC[C@@H]2C[C@H]1C2(C)C [(+)-β-pinene]
4.66

Look up pKi: CC1=CCC(=C(C)C)CC1
4.73
